Values were extracted from PubChem BioAssay AID504834.

# test-description: Primary qHTS for delayed death inhibitors of the malarial parasite plastid, 96 hour incubation
# assay-setup: P. falciparum luciferase reporter growth; series mostly up to 28.7 µM
Screen size: about 320,000 compounds; about 22,000 (6.9%) were called active. Not shown: some 27% with an inconclusive outcome. Calls come from the whole dose curve; as a rule, active = well fitted inhibition curve with a large enough effect; inconclusive = small, poorly fitted or top-dose-only effect, or another doubt; inactive = no such curve, though single readings can be large or run the other way. This excerpt belongs to a sample that is enriched for actives.
Give one outcome, nothing more. List: active, inactive

In: Dear all, I need the recorded test outcome for CCN(C(=O)CSc1nc(N)cc(=O)[nH]1)C1CCS(=O)(=O)C1 (stereo unspecified) , thank you.
Out: inactive

In: Dear all, I need the recorded test outcome for Clc1nc(NC2CCCC2)nc(N2CCOCC2)n1 , thank you.
Out: active

In: Dear all, I need the recorded test outcome for Cc1cccc(NC(=O)N2CCCCCC2)c1C , thank you.
Out: inactive

In: Dear all, I need the recorded test outcome for Cc1ccc(O)c(/C=N/NC(=O)COc2ccc3c(C)cc(=O)oc3c2)c1 , thank you.
Out: active

In: Dear all, I need the recorded test outcome for C/C=N/N(c1ccccc1)c1ccccc1 , thank you.
Out: inactive

In: Dear all, I need the recorded test outcome for O=C(Nc1cccc([N+](=O)[O-])c1)N1CCc2ccccc2C1 , thank you.
Out: inactive
